- Tested on: A549 NSCLC
- Experimental Protocol: NCI tumour cell line growth inhibition, 48 h
Property Name: TGI (µM)
# unit: µM | format: bare number

{"Smi": "COc1cc(/C=C2\\CN(C)C/C(=C\\c3cc(OC)c(OC)c(OC)c3)C2=O)cc(OC)c1OC", "Unit Text": "µM", "TGI": 1.59}

Continue with the next compound.
**Q:** Request body: readout TGI, system A549 NSCLC, query "O=CN1CCN(C(=O)c2cc(Cl)cc(Cl)c2)C1=S" . Return the value.
**A:** 39.8

====

- System: M14 melanoma
- Experimental Protocol: NCI tumour cell line growth inhibition, 48 h
Property Name: TGI

Worked examples, 6 molecules total:
{"Molecule": "C[C@]12CC[C@@H]3c4ccccc4CC[C@H]3[C@@H]1CC[C@@H]2O", "TGI": "> 100 µM"}
{"Molecule": "COC(=O)C1C(O)CCC2CN3CCc4c([nH]c5cccc(OC)c45)C3CC21 (centres undefined)", "TGI": "> 100 µM"}
{"Molecule": "COc1ccc(/C=C2\\CN(Cc3cn(CCCNc4ccnc5cc(Cl)ccc45)nn3)C/C(=C\\c3ccc(OC)c(OC)c3)C2=O)cc1OC", "TGI": "9.68 µM"}
{"Molecule": "COc1ccc(-c2nn(-c3cccc(NC(=O)Nc4ccc(Cl)c(C(F)(F)F)c4)c3)cc2-c2ccncc2)cc1Cl", "TGI": "4.44 µM"}
{"Molecule": "N#CC1=C(S)N(C2OC(CO)C(O)C(O)C2O)C(c2ccccc2)=CC1c1ccccc1 (centres undefined)", "TGI": "> 100 µM"}
{"Molecule": "COC(=O)C(=O)C(C(=O)C(=O)Nc1ccc(Cl)cc1C)c1nc2ccc(C(=O)c3ccccc3)cc2[nH]c1=O (centres undefined)", "TGI": "> 100 µM"}

**Q:** Request body: readout TGI, system M14 melanoma, query CC1(C)C(O)C[C@]23CCC[C@](C)(C[C@@H](O)C12)C3 (some centres undefined) . Return the value.
**A:** > 100 µM

**Q:** Request body: readout TGI, system M14 melanoma, query O=C1C2=Cc3ccccc3OC2(O)Oc2cc(O)ccc21 (centres undefined) . Return the value.
**A:** > 100 µM
